// provenance: a melting point compilation (Tetko et al.; mined from patent text by program, amines drawn as free bases though some values may be those of a salt)

Recorded melting point, one value per entry.

Some solved cases for reference:
Nc1cccc2c1CC(O)CC2 (stereo not given) ... 88 to 91 °C
N=C(NO)c1ccc(-c2ccc(Br)o2)cc1 ... 116 to 117 °C
O=C(Nc1ccc2cc(CN3CCCC3)cnc2c1)c1ccc(-c2ccc(F)cc2)nc1 ... 218 to 220 °C
CCCn1c(=O)c(N=O)c(N)n(CC2CCCCC2)c1=O ... 231 to 233 °C

Field: next compound
Identify measured melting point associated with CC(C)Cn1cc(C(=O)Nc2nccs2)c2ccc(Cl)cc21
200 to 202 °C

====

Recorded melting point, one value per entry.

CCCCNC(=O)[C@H](C)C[C@H](O)[C@H](CC1CCCCC1)NC(=O)[C@H](Cc1cscn1)NC(=O)OC(C)(C)C ... 172 to 174 °C
Cc1nn(-c2ccc(C(F)(F)F)cn2)cc1COc1cccc(OC(C)(C)C(=O)O)c1 ... 152 to 153 °C
O=c1c2ccc(Cl)cc2[nH]c2c(O)nn(C3CCCc4sccc43)c(=O)c12 (racemic) ... > 300 °C
CN(C)C(=O)CC1Cc2ccccc2NC1=O (stereo not given) ... 172 to 173 °C

Identify measured melting point associated with O=C(Nc1ccc(-n2nc(C(F)(F)F)cc2C(F)(F)F)cc1)Nc1ccc(Cl)c([N+](=O)[O-])c1
207 to 209 °C
